Source: patent US20170008888A1

Target: ACK (Homo sapiens)
Construct: screened for activity against several kinases in Jurkat cells; endogenous in cells; host or cells: Jurkat cell lysate
Sequence (Q07912 whole entry): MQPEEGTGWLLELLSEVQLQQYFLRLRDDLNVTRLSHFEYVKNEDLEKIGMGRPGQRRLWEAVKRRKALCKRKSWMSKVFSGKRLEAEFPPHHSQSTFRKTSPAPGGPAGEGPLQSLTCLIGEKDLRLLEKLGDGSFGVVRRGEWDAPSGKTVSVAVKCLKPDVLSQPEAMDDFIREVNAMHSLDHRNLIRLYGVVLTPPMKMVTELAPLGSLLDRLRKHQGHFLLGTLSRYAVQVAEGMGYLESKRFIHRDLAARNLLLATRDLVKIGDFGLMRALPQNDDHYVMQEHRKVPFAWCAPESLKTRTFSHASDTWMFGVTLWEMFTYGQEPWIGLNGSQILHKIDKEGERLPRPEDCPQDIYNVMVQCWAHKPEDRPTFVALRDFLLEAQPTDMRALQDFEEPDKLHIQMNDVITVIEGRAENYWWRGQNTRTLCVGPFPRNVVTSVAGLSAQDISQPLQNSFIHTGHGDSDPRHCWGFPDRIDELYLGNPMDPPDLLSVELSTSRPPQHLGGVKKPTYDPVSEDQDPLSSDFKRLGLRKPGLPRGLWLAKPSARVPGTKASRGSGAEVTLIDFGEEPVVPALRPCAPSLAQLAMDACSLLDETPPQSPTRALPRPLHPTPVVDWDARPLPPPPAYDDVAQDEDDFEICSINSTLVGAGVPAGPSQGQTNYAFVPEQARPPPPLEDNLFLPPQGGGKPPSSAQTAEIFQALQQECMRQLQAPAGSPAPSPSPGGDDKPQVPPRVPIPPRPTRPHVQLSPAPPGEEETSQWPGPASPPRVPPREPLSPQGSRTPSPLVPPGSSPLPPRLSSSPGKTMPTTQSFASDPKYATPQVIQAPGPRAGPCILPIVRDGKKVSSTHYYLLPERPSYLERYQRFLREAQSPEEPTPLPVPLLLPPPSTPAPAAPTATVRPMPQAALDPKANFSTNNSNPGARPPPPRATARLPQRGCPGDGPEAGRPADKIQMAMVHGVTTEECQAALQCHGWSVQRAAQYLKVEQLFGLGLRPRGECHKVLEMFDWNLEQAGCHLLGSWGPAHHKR
Assay: Probe-based (AX9989) kinase profiling in Jurkat lysate: ACK
Assay type: binding
Details: screening concentration 10 μM; read-out: ACK Inhibition % at indicated screening concentration
readout: inhibition at 10 µM

{"columns": ["molecule", "val"],
 "data": [
  ["CCOc1cc(C(=O)N2CCC(N3CCCC3)CC2)ccc1Nc1cc2c(cn1)N(C)C(=O)N1C=CC=CC1=N2", "50 to 75%"],
  ["CCOc1cc(C(=O)N2CCOCC2)ccc1Nc1cc2c(cn1)N(C)C(=O)c1ccccc1[S+]2[O-] (stereo not shown)", "≤ 35%"],
  ["CCOc1cc(C(=O)N2CCN(C3CCN(C)CC3)CC2)ccc1Nc1cc2c(cn1)N(C)C(=O)c1ccccc1O2", "≤ 35%"]
]}

Sure, the documented inhibition at 10 µM for CCOc1cc(C(=O)N2CCC(N3CCCC3)CC2)ccc1Nc1cc2c(cn1)N(C)S(=O)(=O)c1ccccc1N2C is ≤ 35%

----------
As shown below, each of these compounds has a reported EC50 value.
Test system: human PBMCs
Assay: Cytokine response by primary human PBMCs stimulated with PMA/ionomycin or LPS
Assay type: cell-based
Details: PBMC, 100 ng/ml LPS 20 h, read-out: EC50 (μM) under LPS stimulation, G-CSF
The answer is to be given in µM; state only the numeric part.

{"columns": ["compound_string", "unit_abbreviation", "EC50"],
 "data": [
  ["CCOc1cc(C(=O)N2CCCN(C)CC2)ccc1Nc1cc2c(cn1)N(C)C(=O)c1ccccc1N2C", "µM", 4.95]
]}

Sure, the documented EC50 for CCOc1cc(C(=O)N2CCC(N3CCCC3)CC2)ccc1Nc1cc2c(cn1)N(C)C(=O)c1ccccc1N2C is 2.52

----------
System: human Th17 cells
Experiment: Cytokine response by in vitro-polarized human Th17 cells stimulated with PMA/ionomycin
Format: cell-based
Details: 10 μM compound, PMA/ionomycin 20 h, read-out: Percent inhibition of sCD40L (relative to DMSO control)
I would appreciate it if you labelled entries met when inhibition at 10 µM is 30% or higher, otherwise not met.

{"columns": ["compound", "qualitative_label"],
 "data": [
  ["CCOc1cc(C(=O)N2CCC(N3CCCC3)CC2)ccc1Nc1cc2c(cn1)N(C)C(=O)c1ccccc1N2C [Compound 46]", "met"],
  ["CCOc1cc(C(=O)N2CCC(N3CCN(C)CC3)CC2)ccc1Nc1cc2c(cn1)N(C)C(=O)c1occc1N2C [Compound 65]", "met"],
  ["CCOc1cc(C(=O)NCC2CC2)ccc1Nc1cc2c(cn1)N(C)C(=O)c1ccccc1N2C [Compound 57]", "met"],
  ["CCOc1cc(C(=O)N2CCC(N3CCN(C)CC3)CC2)ccc1Nc1cc2c(cn1)N(C)C(=O)c1ccccc1N2C [Compound 61]", "not met"],
  ["CCOc1cc(C(=O)N2CCNCC2)ccc1Nc1cc2c(cn1)N(C)C(=O)c1ccccc1N2C [Compound 62]", "met"]
]}

From here, focus on the item given below.
# bool: inhibition at 10 µM of CCOc1cc(C(=O)N2CC[C@@H](N(C)C)C2)ccc1Nc1cc2c(cn1)N(C)C(=O)c1ccccc1N2C [Compound 115] >= 30%
met
